- System: HL-60
- ASSAY PROTOCOL: Cytotoxicity against human HL-60 cells assessed as cell viability at 1 uM relative to control
- Assay type: functional
- RUN CONDITIONS: read-out: Activity
Give viability at 1 µM for every item shown.
Kindly answer with a numeric value in %, unit omitted.

Query: Give viability at 1 µM for this entry on HL-60: O=C1C=C2C=C[C@@H]3C[C@]2(CN3Cc2ccccc2)O1
Reply: 11

Query: Report viability at 1 µM on HL-60 for this entry: CC(C)CN1C[C@]23C[C@H]1C=CC2=CC(=O)O3
Reply: 15

Query: Would you please give the reported viability at 1 µM of O=C1C=C2C=C[C@@H]3C[C@@]2(O1)[C@H]1CCCCN31 [SECURININE] with HL-60?
Reply: 8

Query: # lookup: HL-60 viability at 1 µM, key = O=C1C=C2C(I)=C[C@@H]3C[C@]2(CN3Cc2ccccc2)O1
Reply: 4
